Values compiled from PubChem BioAssay (NCATS).

TEST_SUMMARY: qHTS for small molecule inhibitors of Yes1 kinase: Counter Assay (AID 686950);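 note: no kinase present so only ADP-Glo detection of a fixed ADP amount is tested; luminescence from ADP-Glo reporting ADP in a fixed ATP and ADP mixture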
EXPERIMENTAL_CONTEXT: series mostly up to 76.9 µM
Active and inactive are the calls of the source. Calls come from the whole dose curve; as a rule, active = well fitted curve in the direction sought with a large enough effect; inactive = no such curve, though single readings can be large or run the other way.
VALUE_TYPE: outcome

{"COMPOUND": "COc1cc2ncn(-c3cc(OCc4ccccc4S(C)(=O)=O)c(C#N)s3)c2cc1OC", "VALUE_TYPE": "outcome", "MEAS_VALUE": "inactive"}
{"COMPOUND": "CCC(=O)N1CCN(c2ccc(-n3c(=O)ccc4cnc5ccc(-c6cnc7ccccc7c6)cc5c43)cc2C(F)(F)F)CC1", "VALUE_TYPE": "outcome", "MEAS_VALUE": "inactive"}
{"COMPOUND": "CCNC(=O)c1noc(-c2cc(C(C)C)c(O)cc2O)c1-c1ccc(CN2CCOCC2)cc1", "VALUE_TYPE": "outcome", "MEAS_VALUE": "inactive"}
{"COMPOUND": "CC1=C[C@@H]2[C@@H]([C@@H](O)C[C@@]3(C)[C@H]2C[C@@H](C)[C@]3(O)C(=O)CO)[C@@]2(C)Cc3cnn(-c4ccccc4)c3C=C12", "VALUE_TYPE": "outcome", "MEAS_VALUE": "inactive"}
{"COMPOUND": "O=C(O)Cc1cccc(OCCCN(Cc2cccc(C(F)(F)F)c2Cl)CC(c2ccccc2)c2ccccc2)c1", "VALUE_TYPE": "outcome", "MEAS_VALUE": "inactive"}
{"COMPOUND": "CNC(=O)c1cc(Oc2ccc(NC(=O)Nc3ccc(Cl)c(C(F)(F)F)c3)c(F)c2)ccn1", "VALUE_TYPE": "outcome", "MEAS_VALUE": "inactive"}
{"COMPOUND": "CN(C)CCN(C)C(=O)c1ccc(NC(=O)Nc2ccc(-c3nc(N4CCOCC4)c4ccn(CC(F)(F)F)c4n3)cc2)cc1", "VALUE_TYPE": "outcome", "MEAS_VALUE": "inactive"}
{"COMPOUND": "CN1C(=O)C(Cc2c[nH]c3ccccc23)NC1=S (configuration not stated)", "VALUE_TYPE": "outcome", "MEAS_VALUE": "inactive"}
{"COMPOUND": "CC(=O)Nc1cccc(-n2c(=O)n(C3CC3)c(=O)c3c(Nc4ccc(I)cc4F)n(C)c(=O)c(C)c32)c1", "VALUE_TYPE": "outcome", "MEAS_VALUE": "inactive"}
{"COMPOUND": "COC(=O)Nc1ccc(-c2nc(N3CCOCC3)c3cnn(C4CCN(C(=O)OC)CC4)c3n2)cc1", "VALUE_TYPE": "outcome", "MEAS_VALUE": "inactive"}
{"COMPOUND": "O=C(O)c1ccc(O)c2ncc(N3CCOCC3)cc12", "VALUE_TYPE": "outcome", "MEAS_VALUE": "inactive"}
{"COMPOUND": "Cc1nn(Cc2ccccc2Cl)c(C)c1CN(C)CC(O)COc1ccc(Cl)cc1 (configuration not stated)", "VALUE_TYPE": "outcome", "MEAS_VALUE": "inactive"}
{"COMPOUND": "NC(=O)c1ccc(N(C(N)=O)c2c(F)cccc2F)nc1-c1ccc(F)cc1F", "VALUE_TYPE": "outcome", "MEAS_VALUE": "inactive"}
{"COMPOUND": "OCCn1cc(-c2ccc3c(c2)CCC3=NO)c(-c2ccncc2)n1", "VALUE_TYPE": "outcome", "MEAS_VALUE": "inactive"}
{"COMPOUND": "CN(C)CCOc1ccc(-c2nc(-c3ccc4c(c3)CCC4=NO)c(-c3ccncc3)[nH]2)cc1", "VALUE_TYPE": "outcome", "MEAS_VALUE": "inactive"}
{"COMPOUND": "CCCCc1ccc(NS(=O)(=O)c2ccc(C)c(C(=O)N3CCN(c4cccc(C)c4C)CC3)c2)cc1", "VALUE_TYPE": "outcome", "MEAS_VALUE": "inactive"}
{"COMPOUND": "Nc1ccc(-c2ccc3ncc4ccc(=O)n(-c5cccc(C(F)(F)F)c5)c4c3c2)cn1", "VALUE_TYPE": "outcome", "MEAS_VALUE": "inactive"}
{"COMPOUND": "COc1ccc2c(c1)CC[C@H]1[C@@H]2CC[C@]2(C)[C@@H](NCCCCCCN3C(=O)C=CC3=O)CC[C@H]12", "VALUE_TYPE": "outcome", "MEAS_VALUE": "inactive"}
{"COMPOUND": "COc1nc(C)cnc1NS(=O)(=O)c1cccnc1-c1ccc(-c2nnco2)cc1", "VALUE_TYPE": "outcome", "MEAS_VALUE": "inactive"}
{"COMPOUND": "CNC(=O)c1cc(COc2nnc(Nc3ccc(Cl)cc3)c3ccoc23)ccn1", "VALUE_TYPE": "outcome", "MEAS_VALUE": "inactive"}
{"COMPOUND": "COc1c(C)cnc(Cn2cnc3c(Cl)nc(N)nc32)c1C", "VALUE_TYPE": "outcome", "MEAS_VALUE": "inactive"}
{"COMPOUND": "Cc1ccc(NC(=O)c2ccc(CN3CCN(C)CC3)cc2)cc1Nc1nc(-c2cccnc2)cs1", "VALUE_TYPE": "outcome", "MEAS_VALUE": "inactive"}
{"COMPOUND": "O=C(Nc1ccc(OC(F)(F)F)cc1)c1sccc1NCc1ccnc2ccccc12", "VALUE_TYPE": "outcome", "MEAS_VALUE": "inactive"}
{"COMPOUND": "CC(C)C[C@H](NC(=O)c1cc2ccccc2s1)C(=O)N1CCN(C(=O)[C@H](CO)NS(=O)(=O)c2ccc(Cl)cc2Cl)CC1", "VALUE_TYPE": "outcome", "MEAS_VALUE": "inactive"}
{"COMPOUND": "Cn1cc(-c2ccc3nnc(Sc4ccc5ncccc5c4)n3n2)cn1", "VALUE_TYPE": "outcome", "MEAS_VALUE": "inactive"}
{"COMPOUND": "CC(C)Oc1cc(Nc2nc(N[C@@H](C)c3ccc(F)cn3)ncc2Cl)[nH]n1", "VALUE_TYPE": "outcome", "MEAS_VALUE": "inactive"}
{"COMPOUND": "COc1cccc(OC)c1-c1cc(C(=O)NC2(C(=O)O)C3CC4CC(C3)CC2C4)nn1-c1ccnc2cc(Cl)ccc12 (configuration not stated)", "VALUE_TYPE": "outcome", "MEAS_VALUE": "inactive"}
